Source: patent US20230014722A1

# measurement-target: T1, human PD-1 on transfected cells (human, UniProt Q15116 25-288)
# T1 construct: also called CHO-S cells expressing human PD-1; human PD-1 transfected CHO-S cells
# T1 sequence (Q15116 25-288 limits assumed): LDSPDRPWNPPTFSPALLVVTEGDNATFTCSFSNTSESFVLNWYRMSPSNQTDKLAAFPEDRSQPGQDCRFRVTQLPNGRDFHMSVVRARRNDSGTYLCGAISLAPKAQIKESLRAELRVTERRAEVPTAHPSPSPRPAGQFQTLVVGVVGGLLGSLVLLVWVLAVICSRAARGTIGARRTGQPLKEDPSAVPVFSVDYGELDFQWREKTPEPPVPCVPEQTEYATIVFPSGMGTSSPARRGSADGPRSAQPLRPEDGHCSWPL
# assay-overview: FACS competition on CHO-S cells expressing human PD-1 against biotinylated WBP305BMK1 at 1 µg/ml
parameter: pIC50
The scale used: pIC50 is minus the common logarithm of the concentration in molar units.

Solved cases below.
binder: 1H6 (antibody, human IgG4, V domains shown) VH: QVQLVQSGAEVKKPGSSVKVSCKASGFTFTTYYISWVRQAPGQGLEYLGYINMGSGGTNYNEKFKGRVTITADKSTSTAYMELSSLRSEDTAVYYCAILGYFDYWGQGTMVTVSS VL: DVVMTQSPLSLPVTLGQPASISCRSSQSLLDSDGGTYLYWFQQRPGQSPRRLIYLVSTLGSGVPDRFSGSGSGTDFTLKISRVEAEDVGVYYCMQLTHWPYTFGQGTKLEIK
pIC50: 8.06
--
binder: 2C2 (antibody, human IgG4, V domains shown) VH: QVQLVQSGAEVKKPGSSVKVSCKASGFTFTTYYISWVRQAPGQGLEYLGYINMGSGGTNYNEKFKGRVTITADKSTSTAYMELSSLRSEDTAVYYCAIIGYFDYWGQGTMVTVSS VL: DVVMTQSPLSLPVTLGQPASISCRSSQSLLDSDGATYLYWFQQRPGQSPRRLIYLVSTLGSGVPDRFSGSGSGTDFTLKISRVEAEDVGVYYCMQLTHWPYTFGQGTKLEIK
pIC50: 8.18

Attention now turns to another entry.
input: What pIC50 value was documented for this binder, 2G4 (antibody, human IgG4, V domains shown) VH: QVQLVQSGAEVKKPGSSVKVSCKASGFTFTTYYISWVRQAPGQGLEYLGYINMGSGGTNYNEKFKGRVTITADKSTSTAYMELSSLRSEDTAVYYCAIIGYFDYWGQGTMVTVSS VL: DVVMTQSPLSLPVTLGQPASISCRSSQSLLDSDGSTYLYWFQQRPGQSPRRLIYLVSTLGSGVPDRFSGSGSGTDFTLKISRVEAEDVGVYYCMQLTHWPYTFGQGTKLEIK ?
output: 8.05
